# Lookup of reported inhibition at 10 µM keyed by entry
# target: UniProt P10635
# measurement.description: Inhibition of CYP2D6 (unknown origin) at 10 uM relative to control
# Assay type: ADME
Write the number in % without appending the unit.

Below, each entry is followed by its recorded inhibition at 10 µM result.
| compound | value.observed |
| --- | --- |
| COc1cc(-c2cn[nH]c2)cc2c(=O)[nH]c(C(N)c3cccc(Cl)c3)nc12 (stereo not given) | 63 |
| COc1cc(-c2cn[nH]c2)cc2c(=O)[nH]c([C@H](N)Cc3cccc(F)c3)nc12 | 57 |
| COc1ccc(C[C@H](N)c2nc3ccc(-c4cn[nH]c4)cc3c(=O)[nH]2)cc1 | 76 |
| COc1ccc([C@@H]2CN(C)C[C@H]2c2nc3ccc(-c4cn[nH]c4)cc3c(=O)[nH]2)cc1 | 66 |

// below: inhibition at 10 µM requested for another compound
N[C@@H](Cc1ccc(F)cc1)c1nc2ccc(-c3cn[nH]c3)cc2c(=O)[nH]1 has a reported inhibition at 10 µM of 89

---

# target: CYP1A2 (Homo sapiens)
# Sequence (P05177 whole entry): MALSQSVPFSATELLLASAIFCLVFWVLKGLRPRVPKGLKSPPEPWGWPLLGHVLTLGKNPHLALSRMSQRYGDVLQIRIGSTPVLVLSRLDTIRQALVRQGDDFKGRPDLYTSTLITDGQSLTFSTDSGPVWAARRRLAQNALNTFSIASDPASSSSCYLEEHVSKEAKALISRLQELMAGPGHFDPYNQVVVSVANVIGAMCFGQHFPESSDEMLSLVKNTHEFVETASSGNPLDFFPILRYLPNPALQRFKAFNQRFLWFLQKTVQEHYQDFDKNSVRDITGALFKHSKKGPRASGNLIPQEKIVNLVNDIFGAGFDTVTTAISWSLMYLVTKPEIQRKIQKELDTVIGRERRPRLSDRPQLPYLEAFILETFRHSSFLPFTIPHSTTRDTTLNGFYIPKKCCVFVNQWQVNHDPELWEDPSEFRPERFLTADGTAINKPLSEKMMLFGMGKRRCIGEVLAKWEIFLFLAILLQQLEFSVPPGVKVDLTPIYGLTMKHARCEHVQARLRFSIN
# measurement.description: Inhibition of CYP1A2 (unknown origin) at 10 uM relative to control
# Format: ADME
reported.endpoint: inhibition at 10 µM (%)
Write the number in % without appending the unit.

Below, each entry is followed by its recorded inhibition at 10 µM result.
| compound | inhibition at 10 µM, % |
| --- | --- |
| N[C@@H](Cc1ccc(Cl)cc1)c1nc2ccc(-c3cn[nH]c3)cc2c(=O)[nH]1 | 51 |
| N[C@@H](Cc1ccc(F)cc1)c1nc2ccc(-c3cn[nH]c3)cc2c(=O)[nH]1 | 12 |
| COc1ccc(C[C@H](N)c2nc3ccc(-c4cn[nH]c4)cc3c(=O)[nH]2)cc1 | 10 |
| COc1cc(-c2cn[nH]c2)cc2c(=O)[nH]c(C(N)c3cccc(Cl)c3)nc12 (centres undefined) | 54 |
| O=c1[nH]c([C@@H]2CNC[C@H]2c2ccccc2)nc2ccc(-c3cn[nH]c3)cc12 | 19 |

NCc1ccc(C(=O)NC(c2ccc(Cl)cc2)c2nc3ccc(-c4cn[nH]c4)cc3c(=O)[nH]2)cc1 (centres undefined) has a reported inhibition at 10 µM of 90

N[C@H](Cc1ccc(F)cc1)c1nc2ccc(-c3cn[nH]c3)cc2c(=O)[nH]1 has a reported inhibition at 10 µM of 19

COc1ccc([C@@H]2CN(C)C[C@H]2c2nc3ccc(-c4cn[nH]c4)cc3c(=O)[nH]2)cc1 has a reported inhibition at 10 µM of 0

CN(C)CC(=O)NC(c1ccc(Cl)cc1)c1nc2ccc(-c3cn[nH]c3)cc2c(=O)[nH]1 (centres undefined) has a reported inhibition at 10 µM of 10

---

# target: Mitogen-activated protein kinase 10 (Homo sapiens)
# Sequence (P53779 whole entry): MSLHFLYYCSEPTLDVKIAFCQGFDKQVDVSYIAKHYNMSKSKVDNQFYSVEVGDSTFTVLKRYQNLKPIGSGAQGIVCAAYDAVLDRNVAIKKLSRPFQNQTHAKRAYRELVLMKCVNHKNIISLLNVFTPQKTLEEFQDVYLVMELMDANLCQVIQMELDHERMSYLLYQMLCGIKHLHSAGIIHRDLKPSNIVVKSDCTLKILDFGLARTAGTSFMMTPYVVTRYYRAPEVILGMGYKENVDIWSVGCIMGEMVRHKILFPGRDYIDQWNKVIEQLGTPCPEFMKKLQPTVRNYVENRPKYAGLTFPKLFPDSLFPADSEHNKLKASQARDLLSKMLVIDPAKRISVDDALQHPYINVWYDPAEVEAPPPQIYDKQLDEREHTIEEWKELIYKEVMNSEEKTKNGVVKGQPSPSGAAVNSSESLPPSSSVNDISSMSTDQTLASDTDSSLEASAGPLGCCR
# measurement.description: Inhibition of JNK3 (unknown origin)
pIC50: −log10 of the molar value.
reported.endpoint: pIC50

| compound | target | pIC50 |
| --- | --- | --- |
| CN(C)CC(=O)NC(c1ccc(Cl)cc1)c1nc2ccc(-c3cn[nH]c3)cc2c(=O)[nH]1 (centres undefined) | Mitogen-activated protein kinase 10 (Homo sapiens) | < 6.00 |
| COc1cc(-c2cn[nH]c2)cc2c(=O)[nH]c([C@H](N)Cc3cccc(F)c3)nc12 | Mitogen-activated protein kinase 10 (Homo sapiens) | < 6.00 |
| COc1ccc([C@@H]2CN(C)C[C@H]2c2nc3ccc(-c4cn[nH]c4)cc3c(=O)[nH]2)cc1 | Mitogen-activated protein kinase 10 (Homo sapiens) | < 6.00 |
| O=c1[nH]c([C@@H]2CNC[C@H]2c2ccccc2)nc2ccc(-c3cn[nH]c3)cc12 | Mitogen-activated protein kinase 10 (Homo sapiens) | < 6.00 |
| N[C@@H](Cc1ccc(Cl)cc1)c1nc2ccc(-c3cn[nH]c3)cc2c(=O)[nH]1 | Mitogen-activated protein kinase 10 (Homo sapiens) | < 6.00 |
| COc1cc(-c2cn[nH]c2)cc2c(=O)[nH]c(C(N)c3cccc(Cl)c3)nc12 (centres undefined) | Mitogen-activated protein kinase 10 (Homo sapiens) | < 6.00 |
| CN(C)c1nc([C@@H]2CNC[C@H]2c2ccccc2)nc2ccc(-c3cn[nH]c3)cc12 | Mitogen-activated protein kinase 10 (Homo sapiens) | < 6.00 |
| COc1ccc(C(N)c2nc3ccc(-c4cn[nH]c4)cc3c(=O)[nH]2)cc1 (centres undefined) | Mitogen-activated protein kinase 10 (Homo sapiens) | < 6.00 |

N[C@H](Cc1ccc(F)cc1)c1nc2ccc(-c3cn[nH]c3)cc2c(=O)[nH]1 has a reported pIC50 of < 6.00

---

# target: CYP2D6 (Homo sapiens, UniProt P10635)
# Sequence (P10635 whole entry): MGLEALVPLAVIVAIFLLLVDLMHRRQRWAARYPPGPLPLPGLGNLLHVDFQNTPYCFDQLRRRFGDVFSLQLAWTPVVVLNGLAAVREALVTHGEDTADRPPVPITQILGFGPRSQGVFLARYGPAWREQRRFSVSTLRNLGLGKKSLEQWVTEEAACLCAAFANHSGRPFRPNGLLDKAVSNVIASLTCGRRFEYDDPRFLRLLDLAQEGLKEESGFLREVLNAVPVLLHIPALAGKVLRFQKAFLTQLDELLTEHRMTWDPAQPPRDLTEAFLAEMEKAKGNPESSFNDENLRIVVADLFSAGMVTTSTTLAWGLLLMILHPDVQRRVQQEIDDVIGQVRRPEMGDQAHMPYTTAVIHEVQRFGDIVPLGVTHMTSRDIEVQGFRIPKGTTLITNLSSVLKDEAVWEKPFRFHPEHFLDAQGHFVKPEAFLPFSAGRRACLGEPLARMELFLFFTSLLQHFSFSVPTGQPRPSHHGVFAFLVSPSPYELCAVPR
# measurement.description: Inhibition of CYP2D6 (unknown origin) at 10 uM relative to control
# Type: ADME
Param threshold (90%) applies to inhibition at 10 µM; output label 1 when value >= threshold, label 0 when value < threshold.

Q: Textbook exercise: given the entry NCc1ccc(C(=O)NC(c2ccc(Cl)cc2)c2nc3ccc(-c4cn[nH]c4)cc3c(=O)[nH]2)cc1 (centres undefined) , state whether its inhibition at 10 µM is greater than or equal to 90%.
A: label 1

Q: Textbook exercise: given the entry O=c1[nH]c([C@@H]2CNC[C@H]2c2ccccc2)nc2ccc(-c3cn[nH]c3)cc12 , state whether its inhibition at 10 µM is greater than or equal to 90%.
A: label 0

---

# target: UniProt P11712
# Sequence (P11712 whole entry): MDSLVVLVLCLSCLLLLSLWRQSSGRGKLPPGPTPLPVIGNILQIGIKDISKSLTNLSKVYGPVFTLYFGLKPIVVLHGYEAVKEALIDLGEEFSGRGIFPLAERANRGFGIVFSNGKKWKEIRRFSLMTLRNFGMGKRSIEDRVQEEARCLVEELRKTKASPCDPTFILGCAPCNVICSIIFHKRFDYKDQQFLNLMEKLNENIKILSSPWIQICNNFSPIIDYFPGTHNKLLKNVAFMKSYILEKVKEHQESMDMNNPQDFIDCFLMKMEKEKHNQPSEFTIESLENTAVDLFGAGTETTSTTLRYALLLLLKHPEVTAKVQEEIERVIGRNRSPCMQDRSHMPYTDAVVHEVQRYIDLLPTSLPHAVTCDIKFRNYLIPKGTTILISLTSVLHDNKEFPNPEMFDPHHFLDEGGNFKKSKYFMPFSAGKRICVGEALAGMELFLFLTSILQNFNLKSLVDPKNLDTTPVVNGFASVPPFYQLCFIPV
# measurement.description: Inhibition of CYP2C9 (unknown origin) at 10 uM relative to control
# Format: ADME
reported.endpoint: inhibition at 10 µM (%)
Write the number in % without appending the unit.

Below, each entry is followed by its recorded inhibition at 10 µM result.
| compound | inhibition at 10 µM [%] |
| --- | --- |
| N[C@@H](Cc1ccc(F)cc1)c1nc2ccc(-c3cn[nH]c3)cc2c(=O)[nH]1 | 38 |
| N[C@@H](Cc1ccc(Cl)cc1)c1nc2ccc(-c3cn[nH]c3)cc2c(=O)[nH]1 | 54 |
| O=c1[nH]c([C@@H]2CNC[C@H]2c2ccc(Cl)cc2)nc2ccc(-c3cn[nH]c3)cc12 | 34 |
| NC(c1cccc(Cl)c1)c1nc2ccc(-c3cn[nH]c3)cc2c(=O)[nH]1 (centres undefined) | 84 |
| O=c1[nH]c([C@@H]2CNC[C@H]2c2ccccc2)nc2ccc(-c3cn[nH]c3)cc12 | 5 |
| CN(C)c1nc([C@@H]2CNC[C@H]2c2ccccc2)nc2ccc(-c3cn[nH]c3)cc12 | 47 |

CN(C)CC(=O)NC(c1ccc(Cl)cc1)c1nc2ccc(-c3cn[nH]c3)cc2c(=O)[nH]1 (centres undefined) has a reported inhibition at 10 µM of 83

COc1cc(-c2cn[nH]c2)cc2c(=O)[nH]c([C@H](N)Cc3cccc(F)c3)nc12 has a reported inhibition at 10 µM of 10

COc1ccc([C@@H]2CN(C)C[C@H]2c2nc3ccc(-c4cn[nH]c4)cc3c(=O)[nH]2)cc1 has a reported inhibition at 10 µM of 55

---

# target: UniProt O75116
# Sequence (O75116 whole entry): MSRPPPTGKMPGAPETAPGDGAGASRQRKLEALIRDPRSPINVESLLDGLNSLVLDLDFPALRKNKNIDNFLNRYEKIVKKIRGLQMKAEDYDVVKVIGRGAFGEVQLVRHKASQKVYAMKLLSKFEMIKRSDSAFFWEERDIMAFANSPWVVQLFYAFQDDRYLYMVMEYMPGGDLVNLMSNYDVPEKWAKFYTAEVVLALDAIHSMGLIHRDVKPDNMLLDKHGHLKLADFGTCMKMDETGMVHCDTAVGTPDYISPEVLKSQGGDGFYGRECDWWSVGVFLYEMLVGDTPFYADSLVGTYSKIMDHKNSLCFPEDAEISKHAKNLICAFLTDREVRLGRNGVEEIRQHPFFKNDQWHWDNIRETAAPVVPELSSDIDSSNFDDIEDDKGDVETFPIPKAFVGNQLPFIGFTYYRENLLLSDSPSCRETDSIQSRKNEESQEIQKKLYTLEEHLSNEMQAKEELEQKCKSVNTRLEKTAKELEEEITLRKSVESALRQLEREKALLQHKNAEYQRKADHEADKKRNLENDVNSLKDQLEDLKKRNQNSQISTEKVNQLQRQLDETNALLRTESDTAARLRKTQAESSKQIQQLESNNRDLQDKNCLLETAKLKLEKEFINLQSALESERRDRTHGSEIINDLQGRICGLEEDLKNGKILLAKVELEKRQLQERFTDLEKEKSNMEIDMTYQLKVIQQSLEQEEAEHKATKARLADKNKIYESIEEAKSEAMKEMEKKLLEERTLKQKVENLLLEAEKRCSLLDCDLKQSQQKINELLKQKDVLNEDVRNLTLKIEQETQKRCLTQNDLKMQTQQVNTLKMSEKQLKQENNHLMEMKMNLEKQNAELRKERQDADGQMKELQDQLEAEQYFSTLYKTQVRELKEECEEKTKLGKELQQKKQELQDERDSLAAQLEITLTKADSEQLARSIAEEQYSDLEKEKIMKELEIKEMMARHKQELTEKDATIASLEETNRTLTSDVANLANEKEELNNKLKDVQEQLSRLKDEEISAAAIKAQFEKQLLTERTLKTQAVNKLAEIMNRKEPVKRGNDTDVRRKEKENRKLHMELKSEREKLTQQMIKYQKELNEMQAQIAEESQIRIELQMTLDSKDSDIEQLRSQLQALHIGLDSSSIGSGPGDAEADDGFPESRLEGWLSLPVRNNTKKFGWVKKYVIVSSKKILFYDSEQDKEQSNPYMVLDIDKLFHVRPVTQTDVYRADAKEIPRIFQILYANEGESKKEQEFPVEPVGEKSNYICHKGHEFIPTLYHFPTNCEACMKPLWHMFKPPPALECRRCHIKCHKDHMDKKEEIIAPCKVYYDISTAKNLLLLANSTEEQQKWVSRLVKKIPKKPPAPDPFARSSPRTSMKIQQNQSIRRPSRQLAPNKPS
# measurement.description: Inhibition of human recombinant 6-His-tagged ROCK2 expressed in baculovirus-infected Sf9 cells using LCB-AKRRRLSSLRA-NH2 as substrate after 25 mins by TR-FRET assay
reported.endpoint: log10(IC50) (log10 of the value in nM)
Remember, log10 of IC50, in nM.

| compound | target | log10(IC50) |
| --- | --- | --- |
| CN(CCO)c1nc([C@@H](N)Cc2cccc(F)c2)nc2ccc(-c3cn[nH]c3)cc12 | UniProt O75116 | 1.43 |
| CN(C)c1nc([C@@H]2CNC[C@H]2c2ccccc2)nc2ccc(-c3cn[nH]c3)cc12 | UniProt O75116 | 0.40 |
| NC(c1cccc(Cl)c1)c1nc2ccc(-c3cn[nH]c3)cc2c(=O)[nH]1 (configuration not stated) | UniProt O75116 | 1.11 |

N[C@H](Cc1cccc(F)c1)c1nc2ccc(-c3cn[nH]c3)cc2c(=O)[nH]1 has a reported log10(IC50) of 1.00

COc1ccc(C[C@H](N)c2nc3ccc(-c4cn[nH]c4)cc3c(=O)[nH]2)cc1OC has a reported log10(IC50) of 1.59

N[C@H](Cc1cccc(Cl)c1)c1nc2ccc(-c3cn[nH]c3)cc2c(=O)[nH]1 has a reported log10(IC50) of 1.11

O=c1[nH]c([C@@H]2CNC[C@H]2c2ccc(C(F)(F)F)cc2)nc2ccc(-c3cn[nH]c3)cc12 has a reported log10(IC50) of 0.30

Cc1n[nH]cc1-c1ccc2nc([C@@H]3CNC[C@H]3c3ccccc3)[nH]c(=O)c2c1 has a reported log10(IC50) of 0.85
